Parameter: pIC50. Scope: all listed entries.
# target.or.test.system: P2X4 receptor (Homo sapiens)
# measurement.protocol: Measurement of Ca2+ influx in transfected 1321N1 astrocytoma cells (P2X4 inhibitory potency)
# measurement.parameters: agonist-mediated Ca2+ influx, FLUO-4, 1321N1 astrocytoma cells; antagonists added 30 min before agonist
pIC50: −log10 of the molar value.

{"compound": "COc1nccc2c(C(=O)CNc3cc(-c4nc(C)ns4)ccc3C)c[nH]c12", "pIC50": "7.41 to 7.70"}
{"compound": "CCc1nsc(-c2ccc(C)c(NCC(=O)N3CCc4c(OCCOCCO)cccc43)c2)n1", "pIC50": "7.72 to 10.00"}
{"compound": "C#Cc1nsc(-c2ccc(C)c(NCC(=O)N3CCc4c(OC)cccc43)c2)n1", "pIC50": "7.72 to 10.00"}
{"compound": "C=Cc1nsc(-c2ccc(C)c(NCC(=O)N3CCc4c(OCCOCCO)cccc43)c2)n1", "pIC50": "7.72 to 10.00"}
{"compound": "Cc1nsc(-c2ccc(C)c(NCC(=O)N3CCc4c(OCC(C)(C)O)cccc43)c2)n1", "pIC50": "7.72 to 10.00"}

Give recorded pIC50. Cc1nsc(-c2ccc(C)c(NCC(=O)N3CCc4c3cccc4N3C(=O)CCC3=O)c2)n1 7.72 to 10.00

Give recorded pIC50. COC(=O)C1CN(C(=O)CNc2cc(-c3nc(C)ns3)ccc2C)c2ccccc21 (centres unmarked) < 7.00

Give recorded pIC50. CCc1nsc(-c2ccc(C)c(NCC(=O)N3CCc4c(OC(F)(F)C(=O)O)cccc43)c2)n1 7.16 to 7.40

* * *

# target.or.test.system: P2X4 receptor (Homo sapiens)
# Sequence (Q99571 1-388): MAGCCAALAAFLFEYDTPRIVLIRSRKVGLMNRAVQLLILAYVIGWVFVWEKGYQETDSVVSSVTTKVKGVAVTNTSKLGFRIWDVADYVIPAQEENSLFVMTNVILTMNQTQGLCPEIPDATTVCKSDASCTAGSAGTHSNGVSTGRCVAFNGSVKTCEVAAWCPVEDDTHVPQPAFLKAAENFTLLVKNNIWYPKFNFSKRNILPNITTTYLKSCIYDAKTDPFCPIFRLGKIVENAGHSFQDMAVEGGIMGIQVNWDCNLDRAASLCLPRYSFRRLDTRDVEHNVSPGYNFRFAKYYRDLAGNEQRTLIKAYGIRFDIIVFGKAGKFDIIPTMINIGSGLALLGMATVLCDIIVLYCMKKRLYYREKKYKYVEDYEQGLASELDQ
# measurement.protocol: Measurement of Ca2+ influx in transfected 1321N1 astrocytoma cells (P2X4 inhibitory potency)
# measurement.parameters: agonist-mediated Ca2+ influx, FLUO-4, 1321N1 astrocytoma cells; antagonists added 30 min before agonist
experimental.endpoint: IC50

{"molecule": "Cc1nsc(-c2ccc(C)c(NCC(=O)N3CCc4c(NCC(C)(C)O)cccc43)c2)n1", "target.or.test.system": "P2X4 receptor (Homo sapiens)", "result.value": "20 to 39 nM"}
{"molecule": "CC(=O)N(c1cccc2c1CCN2C(=O)CNc1cc(-c2nc(C)ns2)ccc1C)S(C)(=O)=O", "target.or.test.system": "P2X4 receptor (Homo sapiens)", "result.value": "20 to 39 nM"}
{"molecule": "Cc1noc(-c2ccc(F)c(NCC(=O)N3CCc4c(N)cccc43)c2)n1", "target.or.test.system": "P2X4 receptor (Homo sapiens)", "result.value": "70 to 99 nM"}
{"molecule": "Cc1nc(-c2ccc(C)c(NCC(=O)c3c[nH]c4ccccc34)c2)no1", "target.or.test.system": "P2X4 receptor (Homo sapiens)", "result.value": "40 to 69 nM"}
{"molecule": "Cc1nsc(-c2ccc(C)c(NCC(=O)N3CCc4c(CS(C)(=N)=O)cccc43)c2)n1 (stereo not drawn)", "target.or.test.system": "P2X4 receptor (Homo sapiens)", "result.value": "> 100 nM"}

Moving on to the next molecule.
Give recorded IC50. Cc1nsc(-c2ccc(C)c(NCC(=O)N3CCc4c3cncc4C(C)(C)O)c2)n1 > 100 nM

* * *

Parameter: IC50. Scope: all listed entries.
# target.or.test.system: P2X4 receptor (Homo sapiens, UniProt Q99571)
# measurement.protocol: Measurement of Ca2+ influx in transfected 1321N1 astrocytoma cells (P2X4 inhibitory potency)
# measurement.parameters: agonist-mediated Ca2+ influx, FLUO-4, 1321N1 astrocytoma cells; antagonists added 30 min before agonist

{"molecule": "Cc1nsc(-c2ccc(C)c(NCC(=O)N3CCc4c(-c5cccnc5)cccc43)c2)n1", "target.or.test.system": "P2X4 receptor (Homo sapiens, UniProt Q99571)", "experimental.endpoint": "IC50", "result.value": "0.1 to 19 nM"}
{"molecule": "CCc1noc(-c2ccc(OC)c(NCC(=O)N3CCc4nc(OC)ccc43)c2)n1", "target.or.test.system": "P2X4 receptor (Homo sapiens, UniProt Q99571)", "experimental.endpoint": "IC50", "result.value": "20 to 39 nM"}
{"molecule": "Cc1nsc(-c2ccc(N3CCCC3)c(NCC(=O)N3CCc4c(OCC(C)(C)O)cccc43)c2)n1", "target.or.test.system": "P2X4 receptor (Homo sapiens, UniProt Q99571)", "experimental.endpoint": "IC50", "result.value": "0.1 to 19 nM"}
{"molecule": "Cc1nsc(-c2ccc(C)c(NCC(=O)N3CCc4c(OCCOCCO)cccc43)c2)n1", "target.or.test.system": "P2X4 receptor (Homo sapiens, UniProt Q99571)", "experimental.endpoint": "IC50", "result.value": "20 to 39 nM"}
{"molecule": "Cc1noc(-c2ccc(F)c(NCC(=O)N3CCc4c3cccc4C(C)(O)CO)c2)n1 (centres unmarked)", "target.or.test.system": "P2X4 receptor (Homo sapiens, UniProt Q99571)", "experimental.endpoint": "IC50", "result.value": "40 to 69 nM"}
{"molecule": "Cc1nsc(-c2ccc(C)c(NCC(=O)N3CCc4nc(Cl)ccc43)c2)n1", "target.or.test.system": "P2X4 receptor (Homo sapiens, UniProt Q99571)", "experimental.endpoint": "IC50", "result.value": "70 to 99 nM"}
{"molecule": "Cc1nsc(-c2ccc(C)c(NCC(=O)N3CCc4c(N5CCC6(CC5)COC6)cccc43)c2)n1", "target.or.test.system": "P2X4 receptor (Homo sapiens, UniProt Q99571)", "experimental.endpoint": "IC50", "result.value": "0.1 to 19 nM"}
{"molecule": "COc1cccc2c1CCN2C(=O)CNc1cc(-c2nc(C)ns2)ccc1C", "target.or.test.system": "P2X4 receptor (Homo sapiens, UniProt Q99571)", "experimental.endpoint": "IC50", "result.value": "0.1 to 19 nM"}
{"molecule": "Cc1nsc(-c2ccc(C)c(NCC(=O)N3CCc4c(NS(C)(=O)=O)cccc43)c2)n1", "target.or.test.system": "P2X4 receptor (Homo sapiens, UniProt Q99571)", "experimental.endpoint": "IC50", "result.value": "20 to 39 nM"}
{"molecule": "CCc1nsc(-c2ccc(C)c(NCC(=O)N3CCc4c(N5CC(C)OC(C)C5)cccc43)c2)n1 (centres unmarked)", "target.or.test.system": "P2X4 receptor (Homo sapiens, UniProt Q99571)", "experimental.endpoint": "IC50", "result.value": "0.1 to 19 nM"}

Give recorded IC50. Cc1nsc(-c2ccc(C)c(NCC(=O)N3CCc4c3cccc4N3C(=O)CCS3(=O)=O)c2)n1 0.1 to 19 nM

Give recorded IC50. Cc1noc(-c2ccc(C)c(NCC(=O)N3CCc4c(O)cccc43)c2)n1 40 to 69 nM

* * *

# target.or.test.system: P2X4 receptor (Homo sapiens, UniProt Q99571)
# Sequence (Q99571 1-388): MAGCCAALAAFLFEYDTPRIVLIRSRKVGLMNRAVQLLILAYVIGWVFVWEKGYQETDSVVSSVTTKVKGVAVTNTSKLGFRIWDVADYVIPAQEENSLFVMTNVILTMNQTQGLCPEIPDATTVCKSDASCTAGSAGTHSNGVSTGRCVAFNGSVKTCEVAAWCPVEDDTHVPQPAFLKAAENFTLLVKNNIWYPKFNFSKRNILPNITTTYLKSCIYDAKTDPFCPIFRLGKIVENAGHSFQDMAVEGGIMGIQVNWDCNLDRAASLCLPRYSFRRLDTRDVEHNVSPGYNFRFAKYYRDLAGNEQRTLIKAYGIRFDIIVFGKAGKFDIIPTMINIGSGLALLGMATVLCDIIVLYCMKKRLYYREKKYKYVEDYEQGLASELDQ
# measurement.protocol: Measurement of Ca2+ influx in transfected 1321N1 astrocytoma cells (P2X4 inhibitory potency)
# measurement.parameters: agonist-mediated Ca2+ influx, FLUO-4, 1321N1 astrocytoma cells; antagonists added 30 min before agonist
experimental.endpoint: IC50

// known answers, use as guide
{"compound": "Cc1nsc(-c2ccc(C)c(NCC(=O)N3CCc4c(C(N)C(F)(F)F)cccc43)c2)n1 (stereo not drawn) [Example 88]", "IC50": "40 to 69 nM"}
{"compound": "CCc1noc(-c2cc(NCC(=O)c3c[nH]c4cc(OC)c(Br)cc34)c(OC)cc2Br)n1 [Example 108]", "IC50": "70 to 99 nM"}
{"compound": "Cc1nsc(-c2ccc(C)c(NCC(=O)N3CCc4c(O)cccc43)c2)n1 [Example 85]", "IC50": "0.1 to 19 nM"}
{"compound": "Cc1nsc(-c2ccc(C)c(NCC(=O)N3CCc4c3cccc4C(C)(O)CO)c2)n1 (racemic) [Example 62]", "IC50": "0.1 to 19 nM"}

Give recorded IC50. COc1ccc2c(n1)CCN2C(=O)CNc1cc(-c2nc(C)ns2)ccc1C [Example 42] 20 to 39 nM

Give recorded IC50. Cc1nsc(-c2ccc(C)c(NCC(=O)N3CCc4c3cccc4S(N)(=O)=O)c2)n1 [Example 51] 40 to 69 nM

Give recorded IC50. CCc1nsc(-c2ccc(C)c(NCC(=O)N3CCc4c(N5CCNCC5)cccc43)c2)n1 [Example 72] 20 to 39 nM

Give recorded IC50. Cc1nsc(-c2ccc(C)c(NCC(=O)N3CCc4c3ccnc4C(C)(C)O)c2)n1 [Example 90] > 100 nM

Give recorded IC50. Cc1noc(-c2ccc(C)c(NCC(=O)N3CCc4c(C(N)C(F)(F)F)cccc43)c2)n1 (stereo not drawn) [Example 89] 70 to 99 nM
